target: Fes (UniProt P07332)
Sequence (P07332 whole entry, looked up): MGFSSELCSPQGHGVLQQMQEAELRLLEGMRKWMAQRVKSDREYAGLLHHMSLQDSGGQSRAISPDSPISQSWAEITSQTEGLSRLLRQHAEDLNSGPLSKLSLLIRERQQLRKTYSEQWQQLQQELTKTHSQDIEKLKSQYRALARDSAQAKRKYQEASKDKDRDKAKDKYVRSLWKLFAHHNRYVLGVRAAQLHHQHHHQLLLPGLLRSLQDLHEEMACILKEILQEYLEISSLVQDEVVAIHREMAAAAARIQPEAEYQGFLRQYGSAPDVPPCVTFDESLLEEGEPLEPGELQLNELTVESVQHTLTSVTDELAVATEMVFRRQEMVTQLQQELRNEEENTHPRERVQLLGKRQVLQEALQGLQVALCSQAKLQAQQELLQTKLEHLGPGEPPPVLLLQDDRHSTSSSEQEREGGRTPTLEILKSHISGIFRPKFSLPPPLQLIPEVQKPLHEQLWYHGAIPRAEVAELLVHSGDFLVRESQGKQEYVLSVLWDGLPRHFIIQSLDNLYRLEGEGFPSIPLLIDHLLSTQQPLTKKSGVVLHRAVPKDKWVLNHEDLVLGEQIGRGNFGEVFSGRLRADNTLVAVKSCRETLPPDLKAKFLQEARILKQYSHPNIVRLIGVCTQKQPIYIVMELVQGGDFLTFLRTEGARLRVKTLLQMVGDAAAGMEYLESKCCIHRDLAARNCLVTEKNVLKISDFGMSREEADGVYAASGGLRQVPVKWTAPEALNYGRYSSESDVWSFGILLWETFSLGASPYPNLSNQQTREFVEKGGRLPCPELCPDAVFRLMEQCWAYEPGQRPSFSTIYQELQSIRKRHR
assay.procedure: phosphorylation enrichment, bacterial display (enrichment ratio); higher = better substrate or ligand; peptides without Tyr show the background;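 also: 11-residue human phosphosite peptides and single-mutation variants displayed on the E. coli surface, counted by deep sequencing, each peptide's frequency after selection divided by its frequency in the unselected input library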;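 also: frequency after pTyr selection over input frequency; kinase dosed for 20-30% of maximal phosphorylation in three min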
Please assign a class to every record based on measured phosphorylation enrichment, with ranges lower level: < 0.8; middle level: ≥ 0.8 and < 1; upper level: ≥ 1

Observe how each entry below is paired with its result.
>>> df
                    sequence_record   class_label
0     EVVGRYSLHNA [MLH1_Y183_V185L]   lower level
1    QLCVSYPGGYT [PROS1_Y259_N258S]  middle level
2     QFNIQYSSSAA [ERBB2IP_Y981_YF]   upper level
3            RKGIRYLTSGL [PIGA_Y82]   lower level
4      AQAERYDDMAA [YWHAG_Y20_E15A]  middle level
5           SGGGSYGSGGG [KRT1_Y539]   lower level
6     DLRTGYSVPYG [TGM1_Y370_Y365D]   lower level
7  PLGKDYRKVEG [MAP1A_Y1909_A1912V]  middle level

Any idea which band TNRSVYFKPSL [NUP153_Y382] is in?
lower level

Any idea which band SHMVDYQPYRK [TEX37_Y25] is in?
middle level

Any idea which band LGSWTYPKTVS [ROS1_Y144_T145P] is in?
upper level

Any idea which band ETESPYQELQG [TYROBP_Y91] is in?
upper level
